Biological target: MMP-7FL (full-length matrilysin) (Homo sapiens, UniProt P09237)
Sequence (P09237 95-267): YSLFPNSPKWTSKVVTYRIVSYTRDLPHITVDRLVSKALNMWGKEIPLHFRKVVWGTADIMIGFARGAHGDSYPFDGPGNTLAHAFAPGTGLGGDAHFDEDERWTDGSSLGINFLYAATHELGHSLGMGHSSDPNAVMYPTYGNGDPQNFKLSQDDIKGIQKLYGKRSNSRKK
Assay: Thiopeptolide hydrolysis assay, MMP-7FL
Type: biochemical
Settings: Table 2; thiopeptolide substrate, HEPES pH 7.0; read-out: IC50 (μM) Versus Certain MMPs: MMP07 (FL)
MEASUREMENT NAME: IC50

Here is how some compounds turned out for IC50.
COc1ccc(CNC(=O)c2ccc3c(c2)S(=O)(=O)N(Cc2ccc4ccccc4c2)C(=O)N3C)cc1    > 30 µM
COc1ccc(CNC(=O)c2ccc3c(c2)S(=O)(=O)N(Cc2ccc(S(=O)(=O)N4CCOCC4)cc2)C(=O)N3C)cc1    > 30 µM

Could you tell me IC50 for each of these compounds? They are listed below.
1. CN1C(=O)N(Cc2ccccc2)S(=O)(=O)c2cc(C(=O)NCc3ccc4nsnc4c3)ccc21
2. CNS(=O)(=O)c1ccc(CN2C(=O)N(C)c3ccc(C(=O)NCc4ccc(OC)cc4)cc3S2(=O)=O)cc1
3. COc1ccc(CNC(=O)c2ccc3c(c2)S(=O)(=O)N(Cc2ccccc2)C(=O)N3C)cc1
4. COC(=O)c1ccc(CN2C(=O)N(C)c3ccc(C(=O)NCc4ccc(F)cc4)cc3S2(=O)=O)cc1
5. COc1ccc(CNC(=O)c2ccc3c(c2)S(=O)(=O)N(Cc2ccc(C(=O)O)cc2)C(=O)N3C)cc1
6. COc1ccc(CNC(=O)c2ccc3c(c2)S(=O)(=O)N(Cc2ccc(-c4nn[nH]n4)cc2)C(=O)N3C)cc1
7. CN1C(=O)N(Cc2ccc(C(=O)O)cc2)S(=O)(=O)c2cc(C(=O)NCc3ccccc3)ccc21
8. COc1cccc(CNC(=O)c2ccc3c(c2)S(=O)(=O)N(Cc2ccccc2)C(=O)N3C)c1

> 30 µM
> 30 µM
51 µM
> 30 µM
> 100 µM
> 30 µM
> 100 µM
> 30 µM

Batch lookup, IC50 per entry.
1. COc1ccc(CNC(=O)c2ccc3c(c2)S(=O)(=O)N(Cc2ccc(C(N)=O)cc2)C(=O)N3C)cc1
2. CN1C(=O)N(Cc2ccc(C(=O)O)cc2)S(=O)(=O)c2cc(C(=O)NCc3ccc(F)cc3)ccc21

1: > 30 µM; 2: > 100 µM
